// data source = ChEMBL document CHEMBL1955811

Assay: Protein binding in cell-culture media with human plasma at 3 uM
Format: ADME, cell-free
Details: read-out: PB (converted)
assay_readout: fraction unbound at 3 µM
Keep the answer to the number alone.

Lookup: Determine from records and report fraction unbound at 3 µM for COc1ccc(COc2ccc(Cc3cnc(N)nc3N)cc2OC)cc1 [GW632580X]
Found: 0.02

----------
Assay: Cmax in mouse at 20 mg/kg, po
Assay type: ADME, organism-based
Design: dose 20 mg/kg, route oral
Settings: in vivo
assay_readout: Cmax (nM)
A number alone suffices; assume nM.

Lookup: Determine from records and report Cmax for COc1ccc(COc2ccc(Cc3cnc(N)nc3N)cc2OC)cc1 [GW632580X]
Found: 50
